test: Determination of S from retention time shift Δ relative to P3 at two gradient slopes, nano-RP-HPLC MS of spiked tryptic digest
Assay type: physicochemical
condition description: experimental S, LC-MS runs of model peptide mixture, formic acid
Provide the recorded Slope (experimental) for the entries that follow.
Answer field: number only, no words.

Can you share its Slope (experimental)? I mean this substance: `HSTVFDNLPNPEDRK` 36.807

Can you share its Slope (experimental)? I mean this substance: `ECCHGDLLECADDR` 34.957

Can you share its Slope (experimental)? I mean this substance: `INLLQK` 24.664

Can you share its Slope (experimental)? I mean this substance: `DGPLTGTYR` 28.947

Can you share its Slope (experimental)? I mean this substance: `DSLFNYQK` 24.58

Can you share its Slope (experimental)? I mean this substance: `LAIGEGQQHQLGGAK` 39.74

Can you share its Slope (experimental)? I mean this substance: `DLGEEHFK` 32.597

Can you share its Slope (experimental)? I mean this substance: `ETGWPFCSDEDWNTK` 29.105

Can you share its Slope (experimental)? I mean this substance: FYTEDGNVVOLVGNNTPIFFIR (FYTEDGNWDLVGNNTPIFFIR) 31.467
